Biological target: T1, EsCas13d, nuclease-dead (Eubacterium siraeum, UniProt B0MS50, R295A;H300A;R849A;H854A)
T1 sequence: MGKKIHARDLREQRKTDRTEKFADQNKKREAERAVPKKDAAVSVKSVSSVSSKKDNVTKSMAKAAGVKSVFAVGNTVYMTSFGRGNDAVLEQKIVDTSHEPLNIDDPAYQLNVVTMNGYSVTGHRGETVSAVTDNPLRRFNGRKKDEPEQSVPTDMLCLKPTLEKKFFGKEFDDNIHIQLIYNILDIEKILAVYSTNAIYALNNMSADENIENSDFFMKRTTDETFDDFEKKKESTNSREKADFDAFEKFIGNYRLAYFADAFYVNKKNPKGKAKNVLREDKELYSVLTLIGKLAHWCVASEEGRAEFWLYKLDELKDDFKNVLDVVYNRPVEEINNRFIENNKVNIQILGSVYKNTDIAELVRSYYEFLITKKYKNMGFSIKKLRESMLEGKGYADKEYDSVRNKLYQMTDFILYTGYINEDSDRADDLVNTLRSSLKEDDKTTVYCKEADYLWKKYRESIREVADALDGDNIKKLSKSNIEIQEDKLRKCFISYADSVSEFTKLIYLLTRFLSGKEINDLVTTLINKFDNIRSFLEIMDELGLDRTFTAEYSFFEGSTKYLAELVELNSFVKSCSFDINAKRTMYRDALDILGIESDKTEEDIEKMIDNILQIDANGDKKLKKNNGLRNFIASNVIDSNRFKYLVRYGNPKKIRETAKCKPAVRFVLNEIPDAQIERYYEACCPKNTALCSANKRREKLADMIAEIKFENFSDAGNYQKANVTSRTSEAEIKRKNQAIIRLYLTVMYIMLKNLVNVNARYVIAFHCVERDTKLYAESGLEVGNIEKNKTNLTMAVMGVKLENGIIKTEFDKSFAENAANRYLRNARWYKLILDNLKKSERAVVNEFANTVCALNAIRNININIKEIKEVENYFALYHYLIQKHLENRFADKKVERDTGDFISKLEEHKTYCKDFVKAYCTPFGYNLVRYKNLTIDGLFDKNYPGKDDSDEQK
Assay: crRNA (strand 1, pre-loaded); Mg2+; 40 mM Tris-HCl pH 7.5, 150 mM NaCl, 6 mM MgCl2, 1 mM DTT, 0.1% Tween-20, 0.2 mg/ml BSA; 25 C; 10 min per concentration, then washed
Conditions: tags: His6-TwinStrep-SUMO cleaved; N-terminal SNAP kept (SNAP-Surface 488); label: 3' end held by stalled T7 RNA polymerase
pKd: −log10 of the molar value.
Note to self: values exactly at 8 are 1.0. So pKd at or above 8 is 1.0, below is 0.0.

Answered cases to consult:
Is the recorded value of pKd equal to or greater than 8 for this binder? target 1 insU 3' of 17,insC 3' of 3 (mixed) RNA 1: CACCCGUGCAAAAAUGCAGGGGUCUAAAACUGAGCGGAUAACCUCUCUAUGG RNA 2: GGGAAUGGAUCCACAUCUACGAAUUCGUACCAUAGUAGAGGUUAUCCGCUCCACCGAGAUCGGAAGAGCACACGU 0.0

Is the recorded value of pKd equal to or greater than 8 for this binder? target 1 A9U,U10G (mixed) RNA 1: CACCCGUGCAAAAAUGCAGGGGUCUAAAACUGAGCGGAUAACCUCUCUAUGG RNA 2: GGGAAUGGAUCCACAUCUACGAAUUCGUACCAUAGAGAGGUGUUCCGCUCACCGAGAUCGGAAGAGCACACGU 0.0

Is the recorded value of pKd equal to or greater than 8 for this binder? target 1 insG 3' of 11,insG 3' of 9 (mixed) RNA 1: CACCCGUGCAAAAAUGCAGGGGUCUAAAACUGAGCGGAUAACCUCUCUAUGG RNA 2: GGGAAUGGAUCCACAUCUACGAAUUCGUACCAUAGAGAGGUGUAGUCCGCUCACCGAGAUCGGAAGAGCACACGU 0.0

Is the recorded value of pKd equal to or greater than 8 for this binder? target 1 C4G,G15U (mixed) RNA 1: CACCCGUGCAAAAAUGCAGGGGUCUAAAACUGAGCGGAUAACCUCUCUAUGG RNA 2: GGGAAUGGAUCCACAUCUACGAAUUCGUACCAUAGAUAGGUUAUCCGGUCACCGAGAUCGGAAGAGCACACGU 0.0

New cases:
Is the recorded value of pKd equal to or greater than 8 for this binder? target 1 C2U,G13A (mixed) RNA 1: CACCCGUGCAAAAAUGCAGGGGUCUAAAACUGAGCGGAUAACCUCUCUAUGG RNA 2: GGGAAUGGAUCCACAUCUACGAAUUCGUACCAUAGAGAAGUUAUCCGCUUACCGAGAUCGGAAGAGCACACGU 1.0
